target: E3 ubiquitin-protein ligase XIAP (Homo sapiens) (UniProt P98170); assay: XIAP binders, primary screen, biophysical, small-molecule microarray, fluorescence 635 nm (AID 1181); details: small-molecule microarray binding, higher = more signal;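 note: score merges 667 nm emission and signal to noise over triplicate slides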
Sequence (P98170 whole entry, looked up): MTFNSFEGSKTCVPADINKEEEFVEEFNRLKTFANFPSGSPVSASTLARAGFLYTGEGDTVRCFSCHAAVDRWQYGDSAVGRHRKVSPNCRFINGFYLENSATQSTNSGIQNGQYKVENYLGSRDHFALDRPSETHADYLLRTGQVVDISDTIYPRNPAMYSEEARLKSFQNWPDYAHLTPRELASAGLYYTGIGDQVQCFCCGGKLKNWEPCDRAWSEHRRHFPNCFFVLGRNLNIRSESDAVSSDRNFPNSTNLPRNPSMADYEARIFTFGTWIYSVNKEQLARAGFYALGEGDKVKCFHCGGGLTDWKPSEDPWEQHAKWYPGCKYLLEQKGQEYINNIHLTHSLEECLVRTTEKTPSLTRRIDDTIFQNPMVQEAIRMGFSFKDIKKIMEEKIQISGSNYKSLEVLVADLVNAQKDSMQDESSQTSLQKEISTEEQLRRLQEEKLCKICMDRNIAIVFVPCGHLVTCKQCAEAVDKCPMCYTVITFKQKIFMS
Label Fulfilled when composite z-score is at or above -0.02; otherwise label Not fulfilled.

Input: Does the molecule `CC(C)=NOC[C@@H](O)COCc1ccco1` have recorded composite z-score that is -0.02 or more?
Output: Fulfilled

Input: Does the molecule `CCN1C(=O)[C@H]2[C@H]3[C@H](O)[C@H](O)CC(=NOC)[C@@H]3CC[C@H]2C1=O` have recorded composite z-score that is -0.02 or more?
Output: Fulfilled

Input: Does the molecule `CO[C@@H]1COC(=O)CC=C[C@H](C)COC(=O)[C@H](C)NC(=O)CC=C[C@H]1C` have recorded composite z-score that is -0.02 or more?
Output: Not fulfilled

Input: Does the molecule `CC(C)=CCCC(C)=CCON=C1C[C@@H](O)[C@@H](O)[C@@H]2[C@@H]3C(=O)N([C@@H](C)c4ccccc4)C(=O)[C@@H]3CC[C@H]12` have recorded composite z-score that is -0.02 or more?
Output: Fulfilled

Input: Does the molecule `O=C(NN=C1C[C@@H](O)[C@@H](O)[C@@H]2[C@@H]3C(=O)N(Cc4ccc5c(c4)OCO5)C(=O)[C@@H]3CC[C@H]12)OCc1ccccc1` have recorded composite z-score that is -0.02 or more?
Output: Fulfilled

Input: Does the molecule `CCOC(=O)NN=C1C[C@@H](O)[C@@H](O)[C@@H]2[C@@H]3C(=O)N(Cc4ccc5c(c4)OCO5)C(=O)[C@@H]3CC[C@@H]12` have recorded composite z-score that is -0.02 or more?
Output: Not fulfilled

Input: Does the molecule `C[C@@H](ON=C1[C@H]2CCn3c(=O)n(-c4ccccc4)c(=O)n3[C@H]2[C@H](O)[C@@H]2O[C@H]12)c1cn([C@H](CO)Cc2ccccc2)nn1` have recorded composite z-score that is -0.02 or more?
Output: Not fulfilled

====

assay: small-molecule microarray binders of probe aDKK1, primary screen, biochemical, biotinylated probe, 635/667 nm fluorescence (AID 1099); settings: higher = more signal;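 note: score merges 667nm spot fluorescence with signal to noise across triplicate slides; reference of the scale not given here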
Recorded composite z-score determines the group label, using low class (below -0.3), middle class (-0.3 to below -0.1), high class (-0.1 or more)

Input: Which band does `CO[C@@H]1COC(=O)CC=C[C@H](C)COC(=O)[C@H](C)NC(=O)CC=C[C@H]1C` fall in?
Output: low class

Input: Which band does Cc1cc2c(nc1C)CCCN2CC(C)ON=C[C@@H](C)[C@H](OCc1ccccc1)C(C)C (stereo partly drawn) fall in?
Output: middle class

Input: Which band does `C[C@@H]1CC[C@@H](C(=O)O)N[C@H]1c1ccc(-c2ccco2)cc1` fall in?
Output: middle class

Input: Which band does `Cc1ccc(S(=O)(=O)N[C@H]2COC(=O)[C@@H](C)COC(=O)[C@H](C)NC(=O)CC=C[C@H]2C)cc1` fall in?
Output: low class

Input: Which band does `C#CCCCON=C1C[C@@H](O)[C@@H](O)[C@@H]2[C@@H]3C(=O)N(C4CCCCC4)C(=O)[C@@H]3CC[C@H]12` fall in?
Output: high class

Input: Which band does `COc1ccc(COC(=O)NN=C2C[C@@H](O)[C@@H](O)[C@@H]3[C@@H]4C(=O)N(C(C)(C)C)C(=O)[C@@H]4CC[C@H]23)cc1` fall in?
Output: low class

Input: Which band does `C=C(C)C(=O)OC[C@@H]1CN2[C@@H](CC[C@@H](C)[C@@H]2c2ccc(Br)cc2)C(=O)O1` fall in?
Output: middle class

Input: Which band does `CCOC(=O)CCN1C(=O)[C@H]2[C@H]3[C@H](O)[C@H](O)CC(=NNC(=O)OCC)[C@@H]3CC[C@H]2C1=O` fall in?
Output: high class

Input: Which band does `CC(C)C(=O)N[C@@H]1CCCN1C(=O)C=Cc1ccccc1` fall in?
Output: low class

Input: Which band does `CCCNC(=O)OC[C@H]1O[C@H](CCON=C(C)CCN2CCc3nc(-c4ccccc4)c(-c4ccccc4)cc3C2)C=C[C@@H]1Oc1ccc(OC)cc1` fall in?
Output: middle class

Input: Which band does `O=C(NN=C1C[C@@H](O)[C@@H](O)[C@@H]2[C@@H]3C(=O)N(Cc4ccc5c(c4)OCO5)C(=O)[C@@H]3CC[C@H]12)OCc1ccccc1` fall in?
Output: high class

Input: Which band does `CC(C)=NOC[C@@H](O)COCc1ccco1` fall in?
Output: middle class

Input: Which band does `CCOC(=O)c1ccc(NC(=O)O[C@H]2[C@H](OC(=O)Nc3ccccc3)[C@@H](OC(=O)Nc3ccccc3)[C@@H](OC)O[C@@H]2CO)cc1` fall in?
Output: high class

Input: Which band does `C[C@@H](c1ccccc1)N1C(=O)[C@H]2[C@H]3[C@H](O)[C@H](O)CC(=O)[C@@H]3CC[C@H]2C1=O` fall in?
Output: middle class

Input: Which band does `CCOC(=O)NN=C1C[C@@H](O)[C@@H](O)[C@@H]2[C@@H]3C(=O)N(Cc4ccccc4)C(=O)[C@@H]3CC[C@@H]12` fall in?
Output: middle class

Input: Which band does `CCN1C(=O)[C@H]2[C@H]3[C@H](O)[C@H](O)CC(=NOC)[C@@H]3CC[C@H]2C1=O` fall in?
Output: high class

Input: Which band does CCOC(=O)[C@H](Cc1ccccc1)NC(=O)CCC1CC(OC(=O)NCc2cccc3ccccc23)CC2(CCCC(COC(=O)NCCCN3CCCC3=O)O2)O1 (stereo partly drawn) fall in?
Output: middle class

====

biological target: Epidermal growth factor receptor (Homo sapiens); assay: EGFR binders on small-molecule microarrays, primary screen, biochemical, small-molecule microarray, 635 nm fluorescence (AID 1104); conditions: EGFR binding, higher = more signal;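 note: score merges 667 nm emission intensity with spot signal to noise over triplicate slides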
value_kind: composite z-score
Answer using only a numeral; do not append any unit.

Input: Reported composite z-score for `CCN1C(=O)[C@H]2[C@H]3[C@H](O)[C@H](O)CC(=NNC(=O)OCc4ccc(OC)cc4)[C@H]3CC[C@H]2C1=O` : what is it?
Output: -0.698

Input: Reported composite z-score for `CC(C)=NOCc1ccc(-c2cn([C@@H]3COC[C@H]3O)nn2)cc1` : what is it?
Output: 0.309

Input: Reported composite z-score for `C[C@@H](ON=C1[C@H]2CCn3c(=O)n(-c4ccccc4)c(=O)n3[C@H]2[C@H](O)[C@@H]2O[C@H]12)c1cn([C@H](CO)Cc2ccccc2)nn1` : what is it?
Output: 0.419

====

assay: binders of probe aFSTL3 on microarray, primary screen, stem cell growth factor project, biochemical, small-molecule microarray, fluorescence 635/667 (AID 1064); conditions: higher = more signal;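 note: measures binding of the biotinylated anti-FSTL3 antibody to printed compounds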
Give measured composite z-score for each item. Keep answers brief.
Answer using only a numeral; do not append any unit.

Input: Reported composite z-score for CCOC(=O)[C@H](Cc1ccccc1)NC(=O)CCC1CC(OC(=O)NCc2cccc3ccccc23)CC2(CCCC(COC(=O)NCCCN3CCCC3=O)O2)O1 (stereo partly drawn) : what is it?
Output: -0.511

Input: Reported composite z-score for Cc1cc2c(nc1C)CCCN2CC(C)ON=C[C@@H](C)[C@H](OCc1ccccc1)C(C)C (stereo partly drawn) : what is it?
Output: -0.461

Input: Reported composite z-score for COC(=O)[C@H](C)NC(=O)CCC1CC(OC(=O)NCCc2ccc(F)cc2)CC2(CCCC(COC(=O)NCCCN3CCCC3=O)O2)O1 (stereo partly drawn) : what is it?
Output: -0.78

Input: Reported composite z-score for `CC(C)=NOC[C@@H](O)COCc1ccco1` : what is it?
Output: -0.0008

Input: Reported composite z-score for `O=C1[C@H]2[C@H]3[C@H](O)[C@H](O)CC(=NOCc4ccccc4)[C@H]3CC[C@H]2C(=O)N1Cc1ccccc1` : what is it?
Output: -0.51

Input: Reported composite z-score for `C=C(C)C(=O)OC[C@@H]1CN2[C@@H](CC[C@@H](C)[C@@H]2c2ccc(Br)cc2)C(=O)O1` : what is it?
Output: -0.577

Input: Reported composite z-score for CCOC(=O)[C@H](CC(C)C)NC(=O)CCC1CC(OC(=O)NCc2cccc3ccccc23)CC2(CCCC(COC(=O)NCc3ccccc3)O2)O1 (stereo partly drawn) : what is it?
Output: -0.289

Input: Reported composite z-score for `CCCNC(=O)OC[C@H]1O[C@H](CCON=C(C)CCN2CCc3nc(-c4ccccc4)c(-c4ccccc4)cc3C2)C=C[C@@H]1Oc1ccc(OC)cc1` : what is it?
Output: -0.369

====

Give measured z-score for each item. Keep answers brief.
test: basal MM1S mitochondrial membrane potential changes, profiling panel, cell-based, JC-1 fluorescence, 24 h, 100 nL compound (AID 1170); conditions: higher = more signal; note: test concentration not given here
Answer using only a numeral; do not append any unit.

Input: Reported z-score for `CCN1C(=O)[C@H]2[C@H]3[C@H](O)[C@H](O)CC(=NNC(=O)OCc4ccc(OC)cc4)[C@H]3CC[C@H]2C1=O` : what is it?
Output: -0.00926

Input: Reported z-score for CCOC(=O)[C@H](CC(C)C)NC(=O)CCC1CC(OC(=O)NCc2cccc3ccccc23)CC2(CCCC(COC(=O)NCc3ccccc3)O2)O1 (some centres undefined) : what is it?
Output: -0.717

Input: Reported z-score for `C[C@@H]1CC[C@@H](C(=O)O)N[C@H]1c1ccc(-c2ccco2)cc1` : what is it?
Output: 0.496

Input: Reported z-score for COC(=O)[C@H](C)NC(=O)CCC1CC(OC(=O)NCCc2ccc(F)cc2)CC2(CCCC(COC(=O)NCCCN3CCCC3=O)O2)O1 (some centres undefined) : what is it?
Output: 0.0394
